Entry source: ChEMBL document CHEMBL5579889

Target: ATP-dependent Clp protease proteolytic subunit (Neisseria gonorrhoeae, UniProt Q5F914)
Sequence (Q5F914 whole entry): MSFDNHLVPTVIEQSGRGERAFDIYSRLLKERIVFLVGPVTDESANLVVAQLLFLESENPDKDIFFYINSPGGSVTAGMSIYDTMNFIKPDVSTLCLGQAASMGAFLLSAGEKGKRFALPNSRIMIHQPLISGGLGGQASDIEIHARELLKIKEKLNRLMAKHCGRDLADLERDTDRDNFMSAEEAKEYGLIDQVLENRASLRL
Assay: Activation of N-terminal His-tagged recombinant Neisseria gonorrhoeae ClpP expressed in Escherichia coli SG1146(DE3) assessed as degradation of casein-FITC preincubated for 10 mins followed by casein addition measured for over 100 mins by fluorescence based assay
pEC50: −log10 of the molar value. Bridge positions count the residues as written; N and C are the ends. Square brackets hold non-standard residues; d marks the D form. Peptide text beside a SMILES is read from it. * marks the point of attachment. Phe(3,5-F2) = N[C@@H](Cc1cc(F)cc(F)c1)C(=O)O; Pro(4R-Me) = C[C@H]1CN[C@H](C(=O)O)C1; aThr = C[C@H](O)[C@H](N)C(=O)O; Pip = O=C(O)[C@@H]1CCCCN1; X1 = CCC/C=C/C=C/C(=O)*
ENDPOINT: pEC50

Worked set:
• O=C(CP(=O)(c1ccc(C(F)(F)F)cn1)c1ccc(C(F)(F)F)cn1)NCCSc1ccccc1C(F)(F)F = 5.31
• CC(C)(C(=O)NCCSc1ccccc1Br)P(=O)(c1ccc(C(F)(F)F)cc1)c1ccc(C(F)(F)F)cc1 = 5.47
• CC(C)(C(=O)NCCSc1ccccc1C(F)(F)F)P(=O)(c1ccc(C(F)(F)F)cc1)c1ccc(C(F)(F)F)cc1 = 5.48
• CCC/C=C/C=C/C(=O)N[C@@H](Cc1cc(F)cc(F)c1)C(=O)N[C@@H]1C(=O)N2CCC[C@H]2C(=O)N2CCCC[C@H]2C(=O)N[C@@H](C)C(=O)N2C[C@H](C)C[C@H]2C(=O)O[C@H]1C (X1-[Phe(3,5-F2)][aThr]P[Pip]A[Pro(4R-Me)]; ester 2-C) = 6.64
• CC(C)(C(=O)NCCSc1ccccc1C(F)(F)F)P(=O)(c1ccc(C(F)(F)F)cn1)c1ccc(C(F)(F)F)cn1 = 6.80

I: CC(C(=O)NCCSc1ccccc1C(F)(F)F)P(=O)(c1ccc(C(F)(F)F)cn1)c1ccc(C(F)(F)F)cn1 (stereo not drawn)
II: CC(C)(C(=O)NCCSc1ccccc1C(F)(F)F)P(=O)(c1ccccn1)c1ccccn1
III: CC(C)(C(=O)NCCSc1ccccc1Cl)P(=O)(c1ccc(C(F)(F)F)cc1)c1ccc(C(F)(F)F)cc1
Exercise: Order each entry by recorded pEC50, climbing from the minimum. Output the labels ranked as instructed.
Key: II, I, III
